Test system: 143B
Assay: Induction of apoptosis in human 143B cells at 12.5 by Annexin V-FITC/propidium iodide double staining based flow cytometry relative to control
Format: functional
Please provide measured Activity for the entries that follow.
Give the value, in units of %, as a plain number.

Ask: Please provide the recorded Activity for CC/C=C\C/C=C\C/C=C\CC1OC1C/C=C\C/C=C\CCC(=O)NCCCO (stereo unspecified) , tested on 143B.
Result: 25.7

Ask: Please provide the recorded Activity for CC/C=C\C/C=C\C/C=C\CC1OC1C/C=C\C/C=C\CCC(=O)NC(C)CO (stereo unspecified) , tested on 143B.
Result: 18.8

Ask: Please provide the recorded Activity for CC/C=C\C/C=C\C/C=C\CC1OC1C/C=C\C/C=C\CCC(=O)NCCO (stereo unspecified) , tested on 143B.
Result: 17.92

Ask: Please provide the recorded Activity for CC/C=C\C/C=C\C/C=C\C/C=C\CC1OC1C/C=C\CCC(=O)NCCO (stereo unspecified) , tested on 143B.
Result: 8.75

Ask: Please provide the recorded Activity for CC/C=C\C/C=C\C/C=C\CC1OC1C/C=C\C/C=C\CCC(=O)NC1CC1 (stereo unspecified) , tested on 143B.
Result: 21.3

Ask: Please provide the recorded Activity for CC/C=C\C/C=C\CC1OC1C/C=C\C/C=C\C/C=C\CCC(=O)NCCO (stereo unspecified) , tested on 143B.
Result: 9.95

---

Biological target: Cannabinoid receptor 1 (Homo sapiens, UniProt P21554)
Sequence (P21554 whole entry): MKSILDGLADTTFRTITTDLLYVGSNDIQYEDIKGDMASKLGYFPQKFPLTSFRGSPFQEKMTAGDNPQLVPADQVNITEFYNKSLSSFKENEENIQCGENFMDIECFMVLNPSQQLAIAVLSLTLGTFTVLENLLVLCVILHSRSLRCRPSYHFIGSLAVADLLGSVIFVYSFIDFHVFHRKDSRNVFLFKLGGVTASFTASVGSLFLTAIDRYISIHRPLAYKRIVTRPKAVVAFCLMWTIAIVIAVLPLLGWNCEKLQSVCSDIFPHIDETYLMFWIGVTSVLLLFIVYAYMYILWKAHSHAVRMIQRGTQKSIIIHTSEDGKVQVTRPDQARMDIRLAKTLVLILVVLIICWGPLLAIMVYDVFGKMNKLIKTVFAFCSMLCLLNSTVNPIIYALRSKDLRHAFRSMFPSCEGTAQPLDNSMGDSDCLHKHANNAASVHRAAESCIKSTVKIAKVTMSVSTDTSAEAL
Assay: Agonist activity at N-terminal FLAG-tagged human CB1 receptor transfected in human HTLA cells assessed as induction of beta-arrestin-recruitment after 8 to 14 hrs by bright-glo luminescence based assay
Measure: pEC50
FYI, pEC50 means -log10 of a concentration in mol per litre.

Ask: Return reported pEC50; argument: CC/C=C\C/C=C\C/C=C\CC1OC1C/C=C\C/C=C\CCC(=O)NCCO (stereo unspecified)
Result: 9.37

---

System: MG-63
Test: Cell cycle arrest in human MG63 cells assessed as accumulation at S phase after 24 hrs by propidium iodide-staining based flow cytometry (reference value: 20.2 +/- 1.8%)
Assay type: functional
Please provide measured Activity for the entries that follow.
Give the value, in units of %, as a plain number.

Ask: Return reported Activity; argument: CC/C=C\C/C=C\C/C=C\CC1OC1C/C=C\C/C=C\CCC(=O)NCCCO (centres undefined)
Result: 19

Ask: Return reported Activity; argument: CC/C=C\C/C=C\C/C=C\CC1OC1C/C=C\C/C=C\CCC(=O)NC(C)CO (centres undefined)
Result: 10.8

Ask: Return reported Activity; argument: CC/C=C\C/C=C\C/C=C\CC1OC1C/C=C\C/C=C\CCC(=O)NCCO (centres undefined)
Result: 17.9

Ask: Return reported Activity; argument: CC/C=C\C/C=C\C/C=C\CC1OC1C/C=C\C/C=C\CCC(=O)NC1CC1 (centres undefined)
Result: 23.1

---

Please provide measured Activity for the entries that follow.
Tested on: MG-63
Test: Cell cycle arrest in human MG63 cells assessed as accumulation at G2 phase after 24 hrs by propidium iodide-staining based flow cytometry (reference value: 16.9 +/- 0.01%)
Type: functional
Give the value, in units of %, as a plain number.

Ask: Return reported Activity; argument: CC/C=C\C/C=C\C/C=C\CC1OC1C/C=C\C/C=C\CCC(=O)NC(C)CO (centres undefined)
Result: 12.5

Ask: Return reported Activity; argument: CC/C=C\C/C=C\C/C=C\CC1OC1C/C=C\C/C=C\CCC(=O)NCCCO (centres undefined)
Result: 17.5

Ask: Return reported Activity; argument: CC/C=C\C/C=C\C/C=C\CC1OC1C/C=C\C/C=C\CCC(=O)NCCO (centres undefined)
Result: 14.4

Ask: Return reported Activity; argument: CC/C=C\C/C=C\C/C=C\CC1OC1C/C=C\C/C=C\CCC(=O)NC1CC1 (centres undefined)
Result: 16.9

---

System: HOS
Test: Induction of apoptosis in human HOS cells at 12.5 by Annexin V-FITC/propidium iodide double staining based flow cytometry relative to control
Assay type: functional
Mark met only for Activity values smaller than 20%; exact matches and larger values are not met.

Ask: # TODO verify Activity < 20% strictly for this compound: CC/C=C\C/C=C\C/C=C\CC1OC1C/C=C\C/C=C\CCC(=O)NC1CC1 (stereo unspecified)
Result: not met

Ask: # TODO verify Activity < 20% strictly for this compound: CC/C=C\C/C=C\C/C=C\CC1OC1C/C=C\C/C=C\CCC(=O)NCCO (stereo unspecified)
Result: not met

Ask: # TODO verify Activity < 20% strictly for this compound: CC/C=C\C/C=C\C/C=C\C/C=C\CC1OC1C/C=C\CCC(=O)NCCO (stereo unspecified)
Result: met

Ask: # TODO verify Activity < 20% strictly for this compound: CC/C=C\C/C=C\C/C=C\CC1OC1C/C=C\C/C=C\CCC(=O)NCCCO (stereo unspecified)
Result: met
